// protein stability index lookup, one value per entry
B1: ZNF207 (parent)
chain: FQPQPVQPQQGYIPPMAQPGLPPV

Variants of: B1
Assay: protein stability index of a GFP-peptide fusion (GPS, HEK-293T) (PSI 1-6); higher = more stable;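 note: lentivirally expressed fusions sorted by FACS into six bins by GFP to DsRed ratio, PSI derived from sequencing read proportions per bin multiplied by bin number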
Details: c terminus: a fixed tail appended
endpoint-label: protein stability index

input-sequence: QQPQPVQPQQGYIPPMAQPGLPPV
measured-result: 4.18

input-sequence: FQPQPVQPQQGYQPPMAQPGLPPV
measured-result: 3.59

input-sequence: FQPQPVQPQQDYIPPMAQPGLPPV
measured-result: 3.63

input-sequence: FQPQPVQPQQGYIPPMAQPGLYPV
measured-result: 2.29

input-sequence: FQPQPVQPQNGYIPPMAQPGLPPV
measured-result: 3.28

input-sequence: FLPQPVQPQQGYIPPMAQPGLPPV
measured-result: 3.49

input-sequence: FQPQPVQPQPGYIPPMAQPGLPPV
measured-result: 3.07

input-sequence: FQPQPVQPQQGYIDPMAQPGLPPV
measured-result: 3.37

input-sequence: FQPQPVQPQQGYIPHMAQPGLPPV
measured-result: 2.74

input-sequence: FQPQPVQPQQGYISPMAQPGLPPV
measured-result: 3.08

input-sequence: FQPQPVQPQQLYIPPMAQPGLPPV
measured-result: 2.65

input-sequence: FQPQPVQPKQGYIPPMAQPGLPPV
measured-result: 2.91

input-sequence: FQPQPVQPQQGYIPKMAQPGLPPV
measured-result: 2.81

input-sequence: FQPQPVQFQQGYIPPMAQPGLPPV
measured-result: 2.88
